Values from a melting point compilation (Tetko et al.)

quantity: melting point

Below, each entry is followed by its recorded melting point result.
molecule | value.observed
NC(=O)c1c(F)c(F)c(N)c(F)c1F | 183 to 187 °C
CC12CCC3C(CCC4=CC(=O)C=CC43O)C1CCC2=O (stereo not drawn) | 219 to 221 °C

Please turn your attention to the following entry.
Would you mind telling me what melting point value was observed for CCC1(OC(C)=O)CCC2(C)C(CCC3C4CCC(=O)C4(C)CCC32)C1 (stereo not drawn) ? 150 to 152 °C

###

Quick reference for melting point among some compounds

Would you mind telling me what melting point value was observed for "CN(C)CCCOc1ccccc1CO" ? 55 to 57 °C

Same lookup for "O=C(c1ccccc1)c1coc(-c2ccc(Cl)cc2)c1S(=O)(=O)c1ccccc1" , please. 96 to 97 °C

Same lookup for "CC(C)(C)c1cc(C(=S)Nc2ccccc2)cc(C(C)(C)C)c1O" , please. 227 to 228 °C

###

Quick reference for melting point among some molecules

Below, each entry is followed by its recorded melting point result.
smiles.representation | melting point
O=C1OC(=O)c2ncccc21 | 134 to 138 °C
OCC1CCN(c2ncccn2)CC1 | 52 to 54 °C
CC(=O)Nc1ccc(N)cc1C | 141 to 142 °C

Would you mind telling me what melting point value was observed for "O=C1Nc2ccccc2C12OCCO2" ? 125 to 128 °C

###

Quick reference for melting point among some molecules
// units = °C; emit number, no label

molecule | quantity | units | value.observed
CCN(CC)c1ccc([N+](=O)[O-])cc1 | melting point | °C | 77.5
Cc1ccc(C(c2ccc(C)o2)c2cc(Br)cc(Br)c2O)o1 | melting point | °C | 88
N#CC1(O)CCCCC1 | melting point | °C | 35
C[C@H]([C@@H](O)c1ccccc1)N1CCCC1 | melting point | °C | 45
C[Si](C)(C)OC1(C#N)c2ccccc2CCc2ccccc2C1(C#N)O[Si](C)(C)C (stereo not given) | melting point | °C | 88
C=C(C)CCCCCCC | melting point | °C | -64

Would you mind telling me what melting point value was observed for CC(NC(=O)CCCCN1C(=O)c2ccccc2C1=O)[P+]([O-])(Oc1ccccc1)Oc1ccccc1 (stereo not given) ? 144

Same lookup for O=c1ccc2cc(OC3OC(CO)C(O)C(O)C3O)c(O)cc2o1 (stereo not given) , please. 205

Same lookup for "CCCCc1ccc2ccccc2c1" , please. -5

###

Quick reference for melting point among some compounds

smiles.representation | melting point
CCc1ccc(C(=O)NN)cc1 | 84 to 87 °C
NC(=S)Nc1ccccc1C(F)(F)F | 158 to 159 °C

Would you mind telling me what melting point value was observed for "O=C1c2ccccc2C(=C(c2ccccc2)c2ccccc2)c2ccccc21" ? 203 to 207 °C

Same lookup for "O=CNc1ccc(C2=NNC(=O)CC2)cc1" , please. 253 to 256 °C

Same lookup for "Ic1ccc(OC2CCOCC2)cc1" , please. 88.5 to 89.5 °C

###

Quick reference for melting point among some compounds

Below, each entry is followed by its recorded melting point result.
smiles.representation | melting point
CCOC(=O)c1sc(SC)c2c1CCCC2=O | 108 to 111 °C
Clc1ncnc2scc(-c3cccs3)c12 | 110 to 112 °C

Please turn your attention to the following entry.
Would you mind telling me what melting point value was observed for "C(=Nc1ccccc1Nc1ccccc1N=Cc1ccccc1)c1ccccc1" ? 102 to 104 °C
